- Test system: NCI-H23
- methodDescription: relative viability (nuclei count vs DMSO), 5 days (fraction); higher = more cells survive
- conditionSet: first compound 20 µM
recordedMetric: relative viability

compound="COCC1(CO)C(=O)C2CCN1CC2 (stereo not given) [PRIMA-1MET] + NC(=O)Nc1cc(-c2cccc(F)c2)sc1C(=O)N[C@H]1CCCNC1 [AZD7762] (partner 0.2 µM)" recordedmetric="relative viability" assayresult=0.102
compound="COCC1(CO)C(=O)C2CCN1CC2 (stereo not given) [PRIMA-1MET] + CC(=O)c1c(C)c2cnc(Nc3ccc(N4CCNCC4)cn3)nc2n(C2CCCC2)c1=O [Palbociclib] (partner 0.5 µM)" recordedmetric="relative viability" assayresult=0.121
compound="COCC1(CO)C(=O)C2CCN1CC2 (stereo not given) [PRIMA-1MET] + CC(=O)Nc1cccc(-n2c(=O)n(C3CC3)c(=O)c3c(Nc4ccc(I)cc4F)n(C)c(=O)c(C)c32)c1 [Trametinib] (partner 0.02 µM)" recordedmetric="relative viability" assayresult=0.112
compound="COCC1(CO)C(=O)C2CCN1CC2 (stereo not given) [PRIMA-1MET] + Cc1nc(Nc2ncc(C(=O)Nc3c(C)cccc3Cl)s2)cc(N2CCN(CCO)CC2)n1 [Dasatinib] (partner 0.075 µM)" recordedmetric="relative viability" assayresult=0.221
compound="COCC1(CO)C(=O)C2CCN1CC2 (stereo not given) [PRIMA-1MET] + N=C(N)NC(=N)NCCc1ccccc1 [Phenformin] (partner 250 µM)" recordedmetric="relative viability" assayresult=0.561
